This collection of values is drawn from PubChem BioAssay AID1159580.

assay: chemical genetic growth profiling, strain panel (AID 1159580);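 also: tested at 20 µM; growth read once vehicle control cultures reached saturation at 30 °C; lower values mean less growth of the strain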; details: S. cerevisiae deletion strains, growth OD, locus YKR001C, strain vps1
In all, about 5,500 compounds went through this assay and about 2,000 (36%) were called active. Not shown: some 18% with an inconclusive outcome. Rule as the data show it: active = normalized growth mostly below about 0.91 (no sharp cut-off); inconclusive = no clear call, values can overlap the other calls; inactive = mostly above about 0.92. The list shows a part of the results.
Classes used: active, inactive

In [3]: df
Out[3]:
                                    molecule  class_label
 0  COC(=O)[C@@H]1OC(=O)[C@H]2O[C@@]23[C@@]1(C)CCC1[C@@]2(C)CCC(=O)C(C)(C)C2C[C@@H](OC(C)=O)[C@]13C (stereo partly drawn)     inactive
 1                       COC(=O)C1=CCCN(C)C1     inactive
 2              Cc1c(Cl)cccc1Nc1ccccc1C(=O)O       active
 3  C=C1CCC(OC(C)=O)/C(C)=C/C[C@@H]2[C@@H]1CC2(C)C (stereo partly drawn)     inactive
 4  C=C1CCC2C(CC2(C)C)C(=O)CCC1O (stereo not drawn)     inactive
 5  C/C1=C\CCC(=O)C2CC(C)(C)C2CC1 (stereo not drawn)     inactive
 6  C=C1CCC(C2CC(=O)OC2=O)C(=O)CCC2C1CC2(C)C (stereo not drawn)     inactive
 7  C=C1CCC2C(CC2(C)C)C(=C)CC/C1=N\O (stereo not drawn)       active
 8               Cc1cccc(Nc2ccccc2C(=O)O)c1C       active
 9  CC1(C)NC(=O)N(c2ccc([N+](=O)[O-])c(C(F)(F)F)c2)C1=O     inactive
10                  CC(=O)Oc1c(C)cccc1C(=O)O     inactive
11  CC1(C)O[C@H]2[C@H](O)C[C@](O)(C(N)=O)C[C@H]2O1     inactive
12        CC1OC1P(=O)(O)O (stereo not drawn)     inactive

---

test: chemical genetic growth profiling, strain panel (AID 1159580);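 also: tested at 20 µM; growth read once vehicle control cultures reached saturation at 30 °C; lower values mean less growth of the strain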; settings: S. cerevisiae deletion strains, growth OD, locus YGL078C, strain dbp3, active compounds read low
The campaign covered roughly 5,500 compounds. About 2,000 (36%) were called active. About 18% were inconclusive and are not listed. The list shows a part of the results.
Kindly apply the following: Met if normalized growth is less than 1, Not met in every other case.

Molecule	Class label
CCC(C)c1cnc(CC(C)C)c(=O)n1O (stereo not given)	Met
Clc1cccc(Cl)c1NC1=NCCN1	Not met
C#CCCCCCCCCCCCC(O)CC(O)COC(C)=O (stereo not given)	Met
CC1=CC2C(CC1=O)C(C)=CCC2C(C)C (stereo not given)	Met
COC(=O)C[C@H]1C(C)(C)C(=O)[C@@H]2CC3=C(CC[C@]4(C)C3=CC(=O)O[C@H]4c3ccoc3)[C@@]1(C)C2=O	Not met
Cc1ccc(C)c(OCCCC(C)(C)C(=O)O)c1	Met
Cc1cccc(Nc2ccccc2C(=O)O)c1C	Met
C=CCCCCCCCCCCCC(O)CC(O)COC(C)=O (stereo not given) (tested in a mixture with another compound)	Met
CO/N=C(\C(=O)NC1C(=O)N2C(C(=O)O)=C(COC(N)=O)CSC12)c1ccco1 (stereo not given)	Met
COc1cc(-c2coc3cc(OCc4ccccc4)c(OC)c(O)c3c2=O)cc(O)c1OC	Met
C=CCSCC1Nc2cc(Cl)c(S(N)(=O)=O)cc2S(=O)(=O)N1 (stereo not given)	Not met
Oc1ccc(Cl)cc1Cc1cc(Cl)ccc1O	Met
